Ref: patent US20260216164A1

biological target: IKZF2 (Helios) (Homo sapiens, UniProt Q96SW2+Q9UKS7); assay: Screening of DC50 (nM) and Dmax (%) using WB-IKZF2 cell line (Western blot); format: cell-based; parameters: endogenous in cells; conditions: 6 hours, class symbols, read-out: WB-IKZF2 DC 50
Sequence (Q9UKS7 whole entry): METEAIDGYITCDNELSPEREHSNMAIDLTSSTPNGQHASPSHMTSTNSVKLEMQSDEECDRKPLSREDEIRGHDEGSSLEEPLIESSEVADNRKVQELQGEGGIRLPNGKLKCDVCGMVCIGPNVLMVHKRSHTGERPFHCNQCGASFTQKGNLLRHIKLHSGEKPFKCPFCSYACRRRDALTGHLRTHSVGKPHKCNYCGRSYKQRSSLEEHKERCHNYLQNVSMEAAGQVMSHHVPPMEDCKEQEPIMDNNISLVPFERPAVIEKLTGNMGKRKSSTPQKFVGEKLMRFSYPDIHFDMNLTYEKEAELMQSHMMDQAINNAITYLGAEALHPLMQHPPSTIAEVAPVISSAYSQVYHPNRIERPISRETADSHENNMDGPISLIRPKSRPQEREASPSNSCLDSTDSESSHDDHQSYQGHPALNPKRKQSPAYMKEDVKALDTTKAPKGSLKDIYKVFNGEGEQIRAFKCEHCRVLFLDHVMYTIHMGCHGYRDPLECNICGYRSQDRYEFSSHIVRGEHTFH
Sequence (Q96SW2 whole entry): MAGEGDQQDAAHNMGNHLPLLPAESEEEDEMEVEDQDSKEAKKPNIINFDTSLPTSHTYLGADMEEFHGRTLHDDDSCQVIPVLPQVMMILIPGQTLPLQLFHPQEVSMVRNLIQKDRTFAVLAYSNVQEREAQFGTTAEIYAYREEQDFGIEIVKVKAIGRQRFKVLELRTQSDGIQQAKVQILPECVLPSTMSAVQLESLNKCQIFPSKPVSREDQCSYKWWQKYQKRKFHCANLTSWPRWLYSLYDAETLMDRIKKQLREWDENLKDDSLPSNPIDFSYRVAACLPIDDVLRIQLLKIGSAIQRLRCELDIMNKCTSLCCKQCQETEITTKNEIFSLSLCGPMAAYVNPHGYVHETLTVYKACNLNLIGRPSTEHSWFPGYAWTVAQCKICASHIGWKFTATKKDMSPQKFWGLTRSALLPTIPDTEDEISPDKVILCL
Sequence (Q16531 whole entry partner): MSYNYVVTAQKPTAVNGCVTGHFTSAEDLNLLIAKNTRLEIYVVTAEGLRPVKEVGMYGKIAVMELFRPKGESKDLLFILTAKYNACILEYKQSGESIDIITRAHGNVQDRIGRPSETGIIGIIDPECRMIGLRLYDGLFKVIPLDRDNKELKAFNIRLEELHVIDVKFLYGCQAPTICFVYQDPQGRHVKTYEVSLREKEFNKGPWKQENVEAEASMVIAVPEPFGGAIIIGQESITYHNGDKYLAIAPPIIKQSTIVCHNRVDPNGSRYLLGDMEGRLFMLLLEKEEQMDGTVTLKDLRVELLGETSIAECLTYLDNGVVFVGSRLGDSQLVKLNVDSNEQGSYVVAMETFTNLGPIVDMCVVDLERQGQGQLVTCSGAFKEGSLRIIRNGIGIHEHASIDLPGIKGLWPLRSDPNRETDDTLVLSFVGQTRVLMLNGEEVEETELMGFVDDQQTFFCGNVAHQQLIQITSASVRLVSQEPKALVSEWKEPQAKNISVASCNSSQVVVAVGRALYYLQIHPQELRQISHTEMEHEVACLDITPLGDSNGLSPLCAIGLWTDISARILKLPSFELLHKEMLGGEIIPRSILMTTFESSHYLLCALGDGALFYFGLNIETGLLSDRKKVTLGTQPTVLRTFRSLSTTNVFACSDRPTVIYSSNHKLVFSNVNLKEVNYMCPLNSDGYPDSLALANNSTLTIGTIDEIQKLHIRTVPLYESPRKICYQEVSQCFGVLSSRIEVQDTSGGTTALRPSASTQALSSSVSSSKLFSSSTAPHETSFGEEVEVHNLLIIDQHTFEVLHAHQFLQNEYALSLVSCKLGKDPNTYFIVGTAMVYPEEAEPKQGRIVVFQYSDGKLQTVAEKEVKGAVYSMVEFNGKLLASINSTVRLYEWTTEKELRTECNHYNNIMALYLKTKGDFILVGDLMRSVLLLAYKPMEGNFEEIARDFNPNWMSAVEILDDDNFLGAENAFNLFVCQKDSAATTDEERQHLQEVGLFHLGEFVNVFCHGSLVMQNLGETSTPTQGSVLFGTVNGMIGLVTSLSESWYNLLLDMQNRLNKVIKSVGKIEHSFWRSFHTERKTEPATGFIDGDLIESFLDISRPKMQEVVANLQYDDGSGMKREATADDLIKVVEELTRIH
readout.kind: DC50

Here is how some compounds turned out for DC50.
{"compound": "Cc1cc2c(C)c(C(=O)N3CCC(c4ccc5c(c4)CN(C4CCC(=O)NC4=O)C5=O)CC3)[nH]c2cc1[N+](=O)[O-] (centres unmarked) [Compound 85]", "experimental.target": "IKZF2 (Helios) (Homo sapiens, UniProt Q96SW2+Q9UKS7)", "DC50": "100 to 1000 nM"}
{"compound": "Cc1c(C(=O)N2CCC(c3ccc4c(c3)CN(C3CCC(=O)NC3=O)C4=O)CC2)[nH]c2cc(Cl)c(O)cc12 (centres unmarked) [Compound 101]", "experimental.target": "IKZF2 (Helios) (Homo sapiens, UniProt Q96SW2+Q9UKS7)", "DC50": "10 to 100 nM"}
{"compound": "Cc1c(C(=O)N2CCC(c3ccc4c(c3F)CN(C3CCC(=O)NC3=O)C4=O)CC2)[nH]c2cc(Cl)ccc12 (centres unmarked) [Compound 91]", "experimental.target": "IKZF2 (Helios) (Homo sapiens, UniProt Q96SW2+Q9UKS7)", "DC50": "< 10 nM"}
{"compound": "Cc1c(C(=O)N2CCC(c3ccc4c(c3)CN(C3CCC(=O)NC3=O)C4=O)CC2)[nH]c2cc(OC(F)(F)F)ccc12 (centres unmarked) [Compound 53]", "experimental.target": "IKZF2 (Helios) (Homo sapiens, UniProt Q96SW2+Q9UKS7)", "DC50": "100 to 1000 nM"}
{"compound": "Cc1c(C(=O)N2CCC(c3ccc4c(c3F)CN(C3CCC(=O)NC3=O)C4=O)CC2)[nH]c2cc(Cl)c(F)cc12 (centres unmarked) [Compound 113]", "experimental.target": "IKZF2 (Helios) (Homo sapiens, UniProt Q96SW2+Q9UKS7)", "DC50": "< 10 nM"}
{"compound": "Cc1c(C(=O)N2CCC(c3ccc4c(c3)CN(C3CCC(=O)NC3=O)C4=O)CC2C)[nH]c2cc(Cl)ccc12 (centres unmarked) [Compound 60]", "experimental.target": "IKZF2 (Helios) (Homo sapiens, UniProt Q96SW2+Q9UKS7)", "DC50": "10 to 100 nM"}
{"compound": "Cc1c(C(=O)N2CCC(c3ccc4c(c3F)CN(C3CCC(=O)NC3=O)C4=O)CC2)[nH]c2cc(Cl)c(O)cc12 (centres unmarked) [Compound 115]", "experimental.target": "IKZF2 (Helios) (Homo sapiens, UniProt Q96SW2+Q9UKS7)", "DC50": "< 10 nM"}

If you can, please state the reported DC50 value of COc1cc2c(C)c(C(=O)N3CCC(c4ccc5c(c4)CN(C4CCC(=O)NC4=O)C5=O)CC3)[nH]c2cc1Cl (centres unmarked) [Compound 71] .
< 10 nM

* * *

target: Helios (IKZF2) (Homo sapiens, UniProt Q96SW2+Q9UKS7); experiment: Screening of Helios protein degraders using Nano-Glo HiBiT cell line (HiBiT-IKZF2); format: cell-based; conditions: compound 1 μM, 6 hours, HiBiT-Helios knock-in Jurkat cells; read-out: HiBiT-IKZF2 Residual amount of Helios (%) 1 μM
Sequence (Q9UKS7 whole entry): as the sequence (Q9UKS7 whole entry) above
Sequence (Q96SW2 whole entry): as the sequence (Q96SW2 whole entry) above
Sequence (Q16531 whole entry partner): as the sequence (Q16531 whole entry partner) above
Just a reminder that ties go to criterion not met: only remaining activity at 1 µM strictly below 40% counts as criterion met.

Check out these entries, answers already filled in.
{"compound": "O=C1CCC(N2Cc3cc(C4CCN(C(=O)c5cc6ncc(Cl)cc6[nH]5)CC4)ccc3C2=O)C(=O)N1 (centres unmarked) [Compound 45]", "label.class": "criterion not met"}
{"compound": "O=C1CCC(N2Cc3cc(C#CCC4CCN(C(=O)c5c[nH]c6ccccc56)CC4)ccc3C2=O)C(=O)N1 (centres unmarked) [Compound 23]", "label.class": "criterion not met"}
{"compound": "Cc1c(C(=O)N2CCC(=Cc3ccc4c(c3)CN(C3CCC(=O)NC3=O)C4=O)CC2)[nH]c2cc(Cl)ccc12 (centres unmarked) [Compound 44]", "label.class": "criterion not met"}

Is remaining activity at 1 µM of Cc1c(C(=O)N2CCC(c3ccc4c(c3F)CN(C3CCC(=O)NC3=O)C4=O)CC2)[nH]c2cc(Cl)c(O)cc12 (centres unmarked) [Compound 115] strictly below 40%?
criterion met

Is remaining activity at 1 µM of Cc1c(C(=O)N2CCC(c3ccc4c(c3)CN(C3CCC(=O)NC3=O)C4=O)CC2)[nH]c2ncccc12 (centres unmarked) [Compound 31] strictly below 40%?
criterion not met

Is remaining activity at 1 µM of Cc1c(C(=O)N2CCC(c3ccc4c(c3)CN(C3CCC(=O)NC3=O)C4=O)CC2)[nH]c2cc(CN3CCNCC3)ccc12 (centres unmarked) [Compound 106] strictly below 40%?
criterion not met

Is remaining activity at 1 µM of CC(=O)Nc1ccc2c(C)c(C(=O)N3CCC(c4ccc5c(c4)CN(C4CCC(=O)NC4=O)C5=O)CC3)[nH]c2c1 (centres unmarked) [Compound 73] strictly below 40%?
criterion not met

Is remaining activity at 1 µM of COc1ccc2[nH]c(C(=O)N3CCC(c4ccc5c(c4)CN(C4CCC(=O)NC4=O)C5=O)CC3)cc2c1 (centres unmarked) [Compound 10] strictly below 40%?
criterion not met

Is remaining activity at 1 µM of Cc1cccc2[nH]c(C(=O)N3CCC(c4ccc5c(c4)CN(C4CCC(=O)NC4=O)C5=O)CC3)cc12 (centres unmarked) [Compound 14] strictly below 40%?
criterion not met
